# ASSAYED TARGET: phage PstS (cyanophage P-SSM2 PstS) (Prochlorococcus phage P-SSM2)
# Sequence (Q58MA7 21-321): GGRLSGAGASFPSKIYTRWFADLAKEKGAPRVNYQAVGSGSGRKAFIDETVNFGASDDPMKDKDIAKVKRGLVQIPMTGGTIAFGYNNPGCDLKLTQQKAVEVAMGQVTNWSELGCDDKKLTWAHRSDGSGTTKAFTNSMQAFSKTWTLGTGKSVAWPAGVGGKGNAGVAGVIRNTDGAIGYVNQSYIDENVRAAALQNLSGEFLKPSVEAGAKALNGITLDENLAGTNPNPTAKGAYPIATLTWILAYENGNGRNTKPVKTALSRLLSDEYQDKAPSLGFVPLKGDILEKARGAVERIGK
PROPERTY: pKd
pKd is a log-scale quantity: -log10 of the concentration expressed in molar.

Task: Fill in reported pKd for this entry: O=P(O)(O)O [phosphate]
Result: 5.86

----------
# ASSAYED TARGET: host PstS (Prochlorococcus NATL2A PstS) (Prochlorococcus marinus)
# Sequence (Q46KP5 25-323): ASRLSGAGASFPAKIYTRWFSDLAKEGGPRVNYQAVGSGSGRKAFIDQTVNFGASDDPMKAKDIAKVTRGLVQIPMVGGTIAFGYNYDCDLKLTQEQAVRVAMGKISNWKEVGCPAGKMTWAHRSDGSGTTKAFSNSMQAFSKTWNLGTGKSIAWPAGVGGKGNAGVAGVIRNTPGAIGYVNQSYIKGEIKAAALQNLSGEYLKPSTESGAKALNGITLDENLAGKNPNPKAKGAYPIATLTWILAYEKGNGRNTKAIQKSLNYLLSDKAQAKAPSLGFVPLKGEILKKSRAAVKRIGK
PROPERTY: Kd (nM)
Numeric answer only, unit nM assumed.

Task: Fill in reported Kd for this entry: O=P(O)(O)O [phosphate]
Result: 820
